target: T1, human ASPP2^920-1120 (human, UniProt Q13625 920-1120)
T1 construct: ASPP2, human, residues 920-1120 (RVxF motif, ankyrin repeats, SH3 domain); pGEX-6P2 construct; source: E. coli Rosetta (DE3) pLysS, purified (glutathione-Sepharose, 3C cleavage, SEC); for the crystal co-expressed with PP1α^7-330 in E. coli BL21 (DE3)
T1 sequence (looked up): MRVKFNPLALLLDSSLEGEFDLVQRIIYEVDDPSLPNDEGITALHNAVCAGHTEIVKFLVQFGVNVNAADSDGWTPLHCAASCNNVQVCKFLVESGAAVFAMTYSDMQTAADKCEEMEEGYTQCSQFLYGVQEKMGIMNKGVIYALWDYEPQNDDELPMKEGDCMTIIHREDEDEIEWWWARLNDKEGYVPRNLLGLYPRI
assayComment: ITC; PP1 peptides (350–550 μM) titrated into ASPP2^920-1120 (40 μM), 20 °C; 25 mM Tris pH 8.0, 200 mM NaCl, 0.5 mM TCEP; single binding site model; ASPP2 mutants and iASPP in place of ASPP2 for Fig. 6e
experimentalContext: both partners purified
pKd: −log10 of the molar value.
Reported pKd values for a set of binders

{"binder": "RPITPPRNSAKAKK (PP1α, human, residues 324-330; source: synthetic peptide (LRI peptide synthesis core facility)) [PP1α^317-330 peptide]", "pKd": 6.57}
{"binder": "KNKGKYGQFSGLNPGGRPITPPRNSAAAAA (peptide, UniProt P62136 301-330, looked up, also called PP1α 3KA; source: synthetic peptide (LRI peptide synthesis core facility)) [PP1α^301-330 3KA peptide]", "pKd": 5.72}
{"binder": "KNKGKYGQFSGLNPGGRPITPPRNSAKAKK (peptide, UniProt P62136 301-330, looked up, also called PP1α C-tail; source: synthetic peptide (LRI peptide synthesis core facility)) [PP1α^301-330 C-tail peptide]", "pKd": 6.84}
{"binder": "RPITPPR (source: synthetic peptide (LRI peptide synthesis core facility)) [PP1α^317-323 core PPII motif peptide]", "pKd": 5.25}
